API: label(entry) gives Fulfilled if the entry's melting point is strictly smaller than 90 °C; on equality or larger values it gives Not fulfilled.

[ask] hey, is melting point for CCOC(=O)C1=NN(c2ccccc2)C(=O)C1C(Cl)C1C(=O)N(c2ccccc2)N=C1C(=O)OCC (configuration not stated) lower than 90 °C or not?
[reply] Not fulfilled

###

metric: melting point (°C)
Report the value in °C with no unit label.

compound: COc1ccccc1F
melting point (°C): -39
//
compound: CC(C)OC(=O)COc1ccc(Cl)cc1Cl
melting point (°C): 5
//
compound: N#CCc1c[nH]c2ccccc12
melting point (°C): 36
//
compound: CC(=O)OCCBr
melting point (°C): -13.8
//
compound: CCCCCCCC(=O)OCCC
melting point (°C): -46.2
//
compound: c1ccc(OCc2nnc3n2NC(c2ccco2)S3)cc1 (stereo not given)
melting point (°C): 102
//
compound: O=C(O)c1cccc(S(=O)(=O)Cl)c1
melting point (°C): 135
//
compound: NC(=O)c1ccc2ccccc2c1
melting point (°C): 195

# melting point of COC(=O)c1cccc(CBr)c1 = 44

Just so you know, measured melting point for Cc1ccc(O)cc1N came out at 158

# compound C=CC(C)(C)C(=O)O ; its melting point = -6

Query C=CCCC(=C)C yields melting point of -129

What the record says about COc1cc(Cl)c(Cl)c(Cl)c1OC : melting point is 66

###

Examples of molecules with documented melting point follow.
Supply the numeric figure in °C, leaving out any unit text.

Below: 2 molecules and their reported melting point.
molecule: CCCCCC(C)CCC (configuration not stated)
melting point [°C]: -99
//
molecule: O=C(O)CNc1ccccc1C(=O)O
melting point [°C]: 218

Now look at this one.
Looking up COCC(=O)c1ccccc1 , I see its melting point listed as 8

###

metric: melting point (°C)
The answer is to be given in °C; state only the numeric part.

Use these answered entries as a reference point.
molecule: CCc1nc(CC)nc(NS(=O)(=O)c2ccc(N)cc2)n1
result_units: °C
melting point: 187

molecule: CC(=Nc1c(O)ccc2ccccc12)c1c(O)c2ccccc2n(-c2ccccc2)c1=O
result_units: °C
melting point: 219

molecule: CC(C)COC=O
result_units: °C
melting point: -95.8

molecule: CC(=O)NC1=NC(=O)C(=Cc2coc3ccc(Cl)cc3c2=O)N1C
result_units: °C
melting point: 276

molecule: Nc1c(Cl)cc(F)cc1Br
result_units: °C
melting point: 56

molecule: CCN(CC)C(=O)C1C=C2c3cccc4[nH]c(Br)c(c34)CC2N(C)C1 (stereo unspecified)
result_units: °C
melting point: 124

Then there is this molecule:
So for Cc1ccc(C(=O)NS(=O)(=O)c2ccc(N)cc2)cc1C , the logged melting point turned out to be 222

###

Peptide text beside a SMILES is read from it.
The label is class 1 for melting point below 80 °C and class 0 for melting point equal to or exceeding 80 °C.

compound: FC(F)(F)C(F)(F)C(F)(F)C(F)(F)C(F)(F)C(F)(F)C(F)(F)C(F)(F)C(F)(F)C(F)(F)I
assigned_label: class 1

compound: FC(F)(F)C(Cl)(Cl)C(Cl)(Cl)C(F)(F)F
assigned_label: class 0

compound: O=C(O)c1cc(Br)c(Br)o1
assigned_label: class 0

compound: COc1ccc(F)cc1CBr
assigned_label: class 1

compound: OCCC(F)(F)C(F)(F)C(F)(F)C(F)(F)C(F)(F)C(F)(F)C(F)(F)C(F)(F)F
assigned_label: class 1

compound: CC(C=CC=C(C)C=CC1=C(C)CC(O)CC1(C)C)=CC=CC=C(C)C=CC=C(C)C=CC1C(C)=CC(O)CC1(C)C (centres undefined)
assigned_label: class 0

compound: COc1ccc(-c2nn(-c3ccccc3)cc2CNc2ccc(F)c(Cl)c2)cc1
assigned_label: class 0

compound: O=[N+]([O-])c1cccc2ncccc12
assigned_label: class 1

[ask] Hello, I'm reviewing records and need to know if melting point of CC(C)CC=NO is below 80 °C. Could you check?
[reply] class 1

[ask] Is 80 °C strictly greater than the compound's reported melting point? compound: O=[N+]([O-])c1cc([N+](=O)[O-])c(C(Cl)=Cc2ccccc2)cc1/C=C\c1ccccc1
[reply] class 0

[ask] Determine whether this compound shows melting point lower than 80 °C (ties excluded): O=C(O)c1cc(F)c(F)c(F)c1
[reply] class 0

[ask] I wonder whether CC(C)[C@H](NC(=O)CN)C(=O)O (H-Gly-Val-OH) has melting point below 80 °C. Can you tell?
[reply] class 0

[ask] In plain terms, does C/C(Cc1ccccc1)=N\NC(N)=O come in under 80 °C for melting point?
[reply] class 0

FYI, the data here is from a melting point compilation (Tetko et al.).
